target: Cytochrome P450 1A2 (Homo sapiens) (UniProt P05177); experiment: Cytochrome P450 Family 1 Subfamily A Member 2 (CYP1A2) small molecule antagonists: luciferase reporter qHTS assay (AID 1671199); settings: P450-Glo CYP1A2 enzyme, luciferin luminescence, 1 h; series mostly up to 115 µM; also: nearly all actives have a fitted effect of over 50% in size; also: potency is read from the fitted curve at half-maximal effect
Sequence (P05177 whole entry, looked up): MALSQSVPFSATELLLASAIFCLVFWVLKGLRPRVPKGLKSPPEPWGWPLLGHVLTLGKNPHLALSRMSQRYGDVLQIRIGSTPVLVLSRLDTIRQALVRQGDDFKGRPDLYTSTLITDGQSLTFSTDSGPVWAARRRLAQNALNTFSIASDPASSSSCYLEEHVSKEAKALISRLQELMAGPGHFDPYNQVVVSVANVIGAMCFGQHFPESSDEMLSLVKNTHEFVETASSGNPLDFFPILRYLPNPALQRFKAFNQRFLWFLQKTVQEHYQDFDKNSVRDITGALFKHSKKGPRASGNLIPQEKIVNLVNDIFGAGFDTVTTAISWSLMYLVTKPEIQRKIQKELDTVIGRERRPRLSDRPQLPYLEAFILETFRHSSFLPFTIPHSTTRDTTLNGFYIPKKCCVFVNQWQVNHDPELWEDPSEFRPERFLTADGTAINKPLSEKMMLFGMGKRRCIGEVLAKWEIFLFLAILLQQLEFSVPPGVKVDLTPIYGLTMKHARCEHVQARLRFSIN
Inconclusive results are not listed. Activity calls are given as the source filed them. Calls follow the shape of the dose curve; as a rule, active = well fitted inhibition curve with a large enough effect in the repeat runs; inconclusive = weak or mixed curves; inactive = no such curve, though single readings can be large or run the other way.
recorded metric: Potency

As a guide, the following entries are already answered.
                                   molecule  recorded_metric          observed
0      CC1=CCC2CC1C2(C)C (stereo not drawn)          Potency          inactive
1  C#C[C@]1(O)CC[C@H]2[C@@H]3CCC4=CC(=O)CC[C@@H]4[C@H]3CC[C@@]21C          Potency          inactive
2  O=[N+]([O-])c1ccc(/C=C/c2ccc([N+](=O)[O-])cc2S(=O)(=O)O)c(S(=O)(=O)O)c1          Potency          inactive
3                            CC(=O)c1ccccc1          Potency  32.9 µM (active)
4                               CCCCCC(N)=O          Potency          inactive
5  O=C(CC(C(=O)OC1CCCCC1)S(=O)(=O)O)OC1CCCCC1 (stereo not drawn)          Potency          inactive

Simply: C[C@H]1C[C@@H]2[C@H]([C@@H](O)C[C@@]3(C)[C@H]2CC[C@]3(O)C(=O)CO)[C@@]2(C)C=CC(=O)C=C12 , Cytochrome P450 1A2 (Homo sapiens) (UniProt P05177), Potency = inactive

Simply: CCCCCCCC(=O)OC , Cytochrome P450 1A2 (Homo sapiens) (UniProt P05177), Potency = inactive

Simply: COS(C)(=O)=O , Cytochrome P450 1A2 (Homo sapiens) (UniProt P05177), Potency = inactive

Simply: CC(C)(C)[C@@H](O)[C@@H](Cc1ccc(Cl)cc1)n1cncn1 , Cytochrome P450 1A2 (Homo sapiens) (UniProt P05177), Potency = inactive

* * *

molecular target: Cytochrome P450 2D6 (Homo sapiens) (UniProt P10635); test: Cytochrome P450 Family 2 Subfamily D Member 6 (CYP2D6) small molecule antagonists: luciferase reporter qHTS assay (AID 1671196); conditions: P450-Glo CYP2D6 enzyme assay, luciferin luminescence, 1 h; series mostly up to 115 µM; also: nearly all actives have a fitted effect of over 50% in size
Sequence (P10635 whole entry, looked up): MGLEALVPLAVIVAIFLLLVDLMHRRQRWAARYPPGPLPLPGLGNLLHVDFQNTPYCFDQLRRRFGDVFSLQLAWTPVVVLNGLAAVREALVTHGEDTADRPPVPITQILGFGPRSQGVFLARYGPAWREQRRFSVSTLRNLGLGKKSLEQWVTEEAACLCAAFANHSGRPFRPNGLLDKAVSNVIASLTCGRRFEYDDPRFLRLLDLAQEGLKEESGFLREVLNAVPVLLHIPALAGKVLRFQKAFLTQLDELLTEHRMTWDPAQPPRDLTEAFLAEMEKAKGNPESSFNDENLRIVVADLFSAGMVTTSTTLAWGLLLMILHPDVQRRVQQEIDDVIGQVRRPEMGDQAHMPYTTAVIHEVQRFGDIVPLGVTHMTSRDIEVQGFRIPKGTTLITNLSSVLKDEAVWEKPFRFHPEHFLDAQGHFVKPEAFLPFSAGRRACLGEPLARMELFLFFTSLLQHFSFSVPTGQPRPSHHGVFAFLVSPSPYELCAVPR
Results filed as inconclusive are left out. Calls of active or inactive are those of the source. Calls come from the whole dose curve; as a rule, active = well fitted inhibition curve with a large enough effect in the repeat runs; inconclusive = weak or mixed curves; inactive = no such curve, though single readings can be large or run the other way.
Respond with a class label; see yes (1) for active, no (0) for inactive

Some solved entries appear below for comparison.
>>> print(df.to_string())
                                molecule  classification
0                  CC(=O)CC(=O)Nc1ccccc1          no (0)
1  C/C=C1/CC2C=CC1C2 (centres undefined)          no (0)
2                    Cc1ccc2oc(=O)ccc2c1          no (0)
3     O=C(O)c1cc(C(=O)O)cc(S(=O)(=O)O)c1         yes (1)
4                  Cc1ccc(S(N)(=O)=O)cc1          no (0)

Exercise: Assay outcome for CCCCCC(N)=O : what was it?
Key: no (0)

Exercise: Assay outcome for OC[C@H]1O[C@@](CO)(O[C@H]2O[C@H](CO)[C@@H](O)[C@H](O)[C@H]2O)[C@@H](O)[C@@H]1O : what was it?
Key: no (0)

Exercise: Assay outcome for CN(C)CCOCCN(C)C : what was it?
Key: no (0)

Exercise: Assay outcome for COc1ccc(Cl)cc1C(=O)NCCc1ccc(S(=O)(=O)NC(=O)NC2CCCCC2)cc1 : what was it?
Key: no (0)

Exercise: Assay outcome for C=CCOC(=O)c1ccccc1C(=O)OCC=C : what was it?
Key: no (0)

Exercise: Assay outcome for CCCCCCCCCCCCCCCO : what was it?
Key: no (0)

Exercise: Assay outcome for CCc1cccc(C)c1N : what was it?
Key: no (0)

Exercise: Assay outcome for CCCCC(CC)CO (centres undefined) : what was it?
Key: no (0)

Exercise: Assay outcome for CC(O)COCC(C)O (centres undefined) : what was it?
Key: no (0)
